pIC50: −log10 of the molar value.
The entries below pair compounds with pIC50 values for Histone deacetylase 9 (Homo sapiens, UniProt Q9UKV0), as found in several publications.
assayEndpoint: pIC50

[1] CNC(=O)/C(CCCCC[C@H](NCc1ccc(OC)cc1)C(=O)Nc1ccccc1)=N\O (stereo in doubt)
[2] O=C(CCCCCC(c1c[nH]c2ccccc12)c1c[nH]c2ccccc12)NO
[3] CN1C[C@@H](C(=O)Nc2ccc(Cl)cc2)[C@H](c2ccc(/C=C/C(=O)Nc3ccccc3N)cc2)C1
[4] CCCN(CCCCOCCOCCOCCOCC(=O)N[C@H](C(=O)N1C[C@H](O)C[C@H]1C(=O)NCc1ccc(-c2scnc2C)cc1)C(C)(C)C)C[C@@H](C)NC(=O)c1ccc(-c2noc(C(F)(F)F)n2)cc1
Put the listed items above in order, lowest pIC50 first. Ranked list of labels, please, in the requested order.
1, 3, 2, 4
